target: phosphorylated ERBB2 (pERBB2) (Homo sapiens); construct: endogenous in cells; assay: Detection of phosphorylated ERBB2 (pERBB2) by ELISA in BT-474 cells; details: four hour incubation
pIC50: −log10 of the molar value.

| Mol smiles | pIC50 |
| --- | --- |
| Cc1cc(Nc2ncnc3ccc4c(c23)OC[C@@H]2CN4CCN2C(=O)/C=C/CN(C)C)ccc1Oc1ccn2ncnc2c1 | 6.36 |
| Cc1cc(Nc2ncnc3ccc4c(c23)OC[C@H]2CNCCN42)ccc1Oc1ccc2c(c1)ncn2C | 7.27 |
| CN(C)C/C=C/C(=O)N1CCN2C[C@@H]1COc1c2ccc2ncnc(Nc3ccc(Oc4ccn5ncnc5c4)cc3F)c12 | 8.05 |
| C=CC(=O)N1CCN2C[C@H]1COc1c2ccc2ncnc(Nc3ccc(Oc4ccn5ncnc5c4)c(C)c3)c12 | 6.37 |
| Cc1cc(Nc2ncnc3ccc4c(c23)OC[C@H]2CN(C)CCN42)ccc1Oc1ccc2c(c1)ncn2C | 7.65 |
| Cc1cc(Nc2ncnc3cc4c(c(F)c23)N2CCOC[C@H]2CO4)ccc1Oc1ccn2ncnc2c1 | 6.65 |
| Cc1cc(Nc2ncnc3cnc4c(c23)OC[C@H]2COCCN42)ccc1Oc1ccc2c(c1)ncn2C | 7.58 |
| Cc1cc(Nc2ncnc3cc4c(cc23)N2CCN(C(=O)/C=C/CN(C)C)C[C@@H]2CO4)ccc1Oc1ccc2c(c1)ncn2C | 7.08 |

###

Entries annotated with measured IC50
biological target: phosphorylated ERBB2 (pERBB2) (Homo sapiens, UniProt P04626); construct: endogenous in cells; experiment: Detection of phosphorylated ERBB2 (pERBB2) by ELISA in BT-474 cells; conditions: four hour incubation
Sequence (P04626 23-1255): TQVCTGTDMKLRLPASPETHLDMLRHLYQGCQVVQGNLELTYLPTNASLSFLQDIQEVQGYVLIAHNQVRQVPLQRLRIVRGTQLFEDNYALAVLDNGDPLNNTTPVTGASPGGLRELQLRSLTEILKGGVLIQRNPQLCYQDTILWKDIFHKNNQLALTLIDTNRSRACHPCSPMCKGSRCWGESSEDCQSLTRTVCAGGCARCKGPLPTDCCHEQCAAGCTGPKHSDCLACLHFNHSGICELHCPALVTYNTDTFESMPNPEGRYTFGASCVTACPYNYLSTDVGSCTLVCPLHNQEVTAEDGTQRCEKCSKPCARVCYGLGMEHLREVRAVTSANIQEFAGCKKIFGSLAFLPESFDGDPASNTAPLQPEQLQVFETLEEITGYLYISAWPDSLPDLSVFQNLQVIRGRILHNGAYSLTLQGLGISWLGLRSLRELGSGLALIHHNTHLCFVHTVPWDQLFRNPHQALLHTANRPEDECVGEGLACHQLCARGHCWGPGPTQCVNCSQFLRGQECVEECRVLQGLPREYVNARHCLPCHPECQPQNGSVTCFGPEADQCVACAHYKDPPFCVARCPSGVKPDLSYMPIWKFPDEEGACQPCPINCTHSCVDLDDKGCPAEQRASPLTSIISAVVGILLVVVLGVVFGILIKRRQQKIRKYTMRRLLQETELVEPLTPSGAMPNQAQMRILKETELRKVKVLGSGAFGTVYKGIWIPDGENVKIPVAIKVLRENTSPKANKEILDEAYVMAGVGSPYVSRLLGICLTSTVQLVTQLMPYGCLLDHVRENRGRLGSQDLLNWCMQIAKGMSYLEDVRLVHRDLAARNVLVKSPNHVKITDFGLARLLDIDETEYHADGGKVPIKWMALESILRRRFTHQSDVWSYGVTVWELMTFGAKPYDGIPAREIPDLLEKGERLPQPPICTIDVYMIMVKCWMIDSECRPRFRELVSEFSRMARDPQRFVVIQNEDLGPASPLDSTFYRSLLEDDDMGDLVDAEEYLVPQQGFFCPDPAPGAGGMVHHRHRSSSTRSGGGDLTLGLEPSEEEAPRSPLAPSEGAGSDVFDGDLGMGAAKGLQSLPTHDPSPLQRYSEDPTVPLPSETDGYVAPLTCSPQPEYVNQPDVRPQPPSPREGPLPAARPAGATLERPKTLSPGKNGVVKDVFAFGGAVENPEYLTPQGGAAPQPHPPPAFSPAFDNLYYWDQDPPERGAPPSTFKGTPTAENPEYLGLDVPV
Metric name: IC50 (nM)

| Mol smiles | Numeric value |
| --- | --- |
| Cc1cc(Nc2ncnc3ccc4c(c23)OC[C@H]2COCCN42)c(F)cc1Oc1ccn2ncnc2c1 | 82.2 |
| C=CC(=O)N1CCN2c3nc4c(Nc5ccc(Oc6ccc7c(c6)ncn7C)c(C)c5)ncnc4cc3OC[C@H]2C1 | 18.1 |
| Cc1cc(Nc2ncnc3cc4c(nc23)N2CCOC[C@H]2CO4)ccc1Oc1ccc2c(c1)ncn2C | 78.2 |
| Cc1cc(Nc2ncnc3cnc4c(c23)OC[C@H]2CN4CCN2C(=O)/C=C/CN(C)C)c(F)cc1Oc1ccn2ncnc2c1 | 17.3 |

###

Recorded IC50, one value per entry.
molecular target: phosphorylated ERBB2 (pERBB2) (Homo sapiens, UniProt P04626); construct: endogenous in cells; assay: Detection of phosphorylated ERBB2 (pERBB2) by ELISA in BT-474 cells; conditions: four hour incubation

| Compound | IC50 / nM |
| --- | --- |
| Cc1cc(Nc2ncnc3ccc4c(c23)OC[C@H]2CN4CCN2)ccc1Oc1ccn2ncnc2c1 [Compound 51] | 128 |
| Cc1cc(Nc2ncnc3ccc4c(c23)O[C@@H]2CCN(C)C[C@H]2N4C)ccc1Oc1ccc2c(c1)ncn2C (relative stereo) [Compound 124] | 63 |
| Cc1cc(Nc2ncnc3ccc4c(c23)OC[C@H]2COCCN42)ccc1Oc1ccc2c(c1)ncn2C [Compound 108] | 57.2 |
| CN(C)C/C=C/C(=O)N1CCN2c3ccc4ncnc(Nc5ccc(Oc6ccn7ncnc7c6)c(F)c5)c4c3OC[C@H]2C1 [Compound 118] | 25 |
| Cc1cc(Nc2ncnc3cc4c(nc23)N2CCN(C)C[C@H]2CO4)ccc1Oc1cc2ncn(C)c2cn1 [Compound 127] | 828 |
| C=CC(=O)N1CCN2C[C@@H]1COc1c2ccc2ncnc(Nc3ccc(Oc4ccn5ncnc5c4)c(C)c3)c12 [Compound 25] | 11.5 |
| Cc1ccc(Oc2ccc(Nc3ncnc4cc5c(nc34)N3CCN(C)C[C@H]3CO5)cc2C)cn1 [Compound 73] | 198 |

###

The entries below come with measured GI50 values attached.
biological target: Ba/F3 ERBB2 YVMA (Homo sapiens, UniProt P04626, DUP772-775, cells depend on it); assay: Cell viability assay (CellTiter Glo), Ba/F3 cells engineered to express ERBB2 YVMA; format: cell-based, mouse; conditions: Ba/F3 cells expressing human ERBB2 YVMA mutant, 72 hours, read-out: Ba/F3 ERBB2 YVMA, IC50
Sequence (P04626 with tags, fused parts or gaps DUP772-775): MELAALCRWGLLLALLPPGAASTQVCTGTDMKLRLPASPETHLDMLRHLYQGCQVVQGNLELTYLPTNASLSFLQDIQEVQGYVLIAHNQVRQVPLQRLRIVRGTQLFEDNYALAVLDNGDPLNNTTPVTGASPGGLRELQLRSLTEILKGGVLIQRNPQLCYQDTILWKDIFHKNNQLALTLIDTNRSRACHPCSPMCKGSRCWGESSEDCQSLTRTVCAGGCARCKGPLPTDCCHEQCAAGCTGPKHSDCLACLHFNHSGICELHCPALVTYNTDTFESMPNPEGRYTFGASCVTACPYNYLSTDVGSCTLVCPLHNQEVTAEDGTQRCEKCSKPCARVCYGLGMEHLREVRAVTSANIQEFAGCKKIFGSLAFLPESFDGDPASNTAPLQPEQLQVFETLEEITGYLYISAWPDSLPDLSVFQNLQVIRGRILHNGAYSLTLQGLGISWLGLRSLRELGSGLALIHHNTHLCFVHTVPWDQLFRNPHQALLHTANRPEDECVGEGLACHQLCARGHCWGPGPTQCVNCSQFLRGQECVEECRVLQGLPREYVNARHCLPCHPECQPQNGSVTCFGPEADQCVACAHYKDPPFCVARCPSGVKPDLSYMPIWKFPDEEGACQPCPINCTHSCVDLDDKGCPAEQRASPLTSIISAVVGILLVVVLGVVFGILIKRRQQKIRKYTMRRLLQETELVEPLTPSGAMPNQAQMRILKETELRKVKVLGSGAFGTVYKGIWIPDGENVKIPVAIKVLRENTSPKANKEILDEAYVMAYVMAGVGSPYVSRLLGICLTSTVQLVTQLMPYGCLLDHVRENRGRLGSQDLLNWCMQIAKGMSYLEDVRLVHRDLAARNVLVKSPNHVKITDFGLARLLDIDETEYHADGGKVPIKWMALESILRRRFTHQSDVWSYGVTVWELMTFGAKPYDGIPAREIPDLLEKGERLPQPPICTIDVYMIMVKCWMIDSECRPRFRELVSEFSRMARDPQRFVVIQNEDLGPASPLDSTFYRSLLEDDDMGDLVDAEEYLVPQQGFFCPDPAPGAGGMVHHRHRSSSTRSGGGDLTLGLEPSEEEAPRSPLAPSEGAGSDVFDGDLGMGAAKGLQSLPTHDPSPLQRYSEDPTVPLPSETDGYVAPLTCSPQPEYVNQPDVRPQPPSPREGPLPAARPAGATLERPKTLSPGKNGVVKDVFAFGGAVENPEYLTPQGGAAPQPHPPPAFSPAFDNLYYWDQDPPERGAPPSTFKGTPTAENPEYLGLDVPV

| Compound | Limit qualifier | GI50 [nM] |
| --- | --- | --- |
| Cc1cc(Nc2ncnc3ccc4c(c23)OC[C@H]2CN(C(=O)/C=C/CN(C)C)CCN42)ccc1Oc1ccc2c(c1)ncn2C [Compound 22] | = | 2.12 |
| Cc1cc(Nc2ncnc3ccc4c(c23)OC[C@H]2CN4CCN2C(=O)/C=C/[C@H](C)N(C)C)ccc1Oc1ccn2ncnc2c1 [Compound 89] | = | 264 |
| Cc1cc(Nc2ncnc3ccc4c(c23)O[C@H]2CCN(C)C[C@@H]2N4)ccc1Oc1ccc2c(c1)ncn2C (relative stereo) [Compound 126] | = | 140 |
| Cc1cc(Nc2ncnc3cc4c(nc23)N2CCNC[C@@H]2CO4)ccc1Oc1ccn2ncnc2c1 [Compound 35] | > | 500 |
| Cc1cc(Nc2ncnc3ccc4c(c23)OC[C@H]2CN4CCN2C(=O)/C=C/[C@@H](C)N(C)C)ccc1Oc1ccn2ncnc2c1 [Compound 88, formic acid] | = | 60.3 |
| CC#CC(=O)N1CCN2c3nc4c(Nc5ccc(Oc6ccn7ncnc7c6)c(C)c5)ncnc4cc3OC[C@@H]2C1 [Compound 32] | = | 18.3 |

###

molecular target: phosphorylated ERBB2 (pERBB2) (Homo sapiens, UniProt P04626); construct: endogenous in cells; host or cells: BT-474; assay: Detection of phosphorylated ERBB2 (pERBB2) by ELISA in BT-474 cells; assay type: cell-based; conditions: four hour incubation
pIC50: −log10 of the molar value.
Listed next: entries and their corresponding pIC50.

| Compound | pIC50 |
| --- | --- |
| CN(C)C/C=C/C(=O)N1CCN2c3ccc4ncnc(Nc5ccc(Oc6ccn7ncnc7c6)c(F)c5)c4c3OC[C@@H]2C1 [Compound 94] | 7.71 |
| Cc1cc(Nc2ncnc3ccc4c(c23)OC[C@@H]2CN(C(=O)/C=C/C3CN(C)C3)CCN42)ccc1Oc1ccn2ncnc2c1 [Compound 114, formic acid] | 7.37 |
| Fc1cc(Oc2ccn3ncnc3c2)ccc1Nc1ncnc2cc3c(nc12)N1CCOC[C@H]1CO3 [Compound 104] | 6.31 |
| Cc1cc(Nc2ncnc3cnc4c(c23)OC[C@@H]2CN(C(=O)/C=C/CN(C)C)CCN42)ccc1Oc1ccn2ncnc2c1 [Compound 112] | 7.66 |
| CN(C)C/C=C/C(=O)N1CCN2c3ccc4ncnc(Nc5ccc(Oc6ccn7ncnc7c6)cc5F)c4c3OC[C@H]2C1 [Compound 119] | 7.54 |
| Cc1cc(Nc2ncnc3cc4c(cc23)N2CCOC[C@H]2CO4)ccc1Oc1ccc2c(c1)ncn2C [Compound 121] | 7.57 |
| Cc1cc(Nc2ncnc3cc4c(cc23)N2CCN(C)C[C@H]2CO4)ccc1Oc1ccc2c(c1)ncn2C [Compound 62] | 7.41 |
| Cc1cc(Nc2ncnc3cnc4c(c23)OC[C@H]2CN4CCN2C(=O)/C=C/CN(C)C)ccc1Oc1ccn2ncnc2c1 [Compound 82] | 8.10 |
| Cc1cc(Nc2ncnc3cc4c(nc23)N2CCNC[C@H]2CO4)ccc1Oc1ccn2ncnc2c1 [Compound 34] | 7.27 |
| Cc1cc(Nc2ncnc3cc4c(nc23)N2CCN(C)C[C@H]2CO4)c(F)cc1Oc1ccn2ncnc2c1 [Compound 75] | 7.13 |
| Cc1cc(Nc2ncnc3ccc4c(c23)OC[C@H]2CN4CCN2C(=O)/C=C/C2CN(C)C2)ccc1Oc1ccn2ncnc2c1 [Compound 80] | 7.64 |
| Cc1cc(Nc2ncnc3cc4c(nc23)N2CCN(C(=O)/C=C/CN(C)C)C[C@H]2CO4)ccc1Oc1ccc2c(c1)ncn2C [Compound 17] | 7.46 |
| Cc1cc(Nc2ncnc3cnc4c(c23)O[C@H]2CCN(C)C[C@H]2N4C)ccc1Oc1ccc2c(c1)ncn2C [Compound 131] | 7.49 |
| Cc1cc(Nc2ncnc3cc4c(nc23)N2CCN(C(=O)/C=C/CN(C)C)C[C@H]2CO4)ccc1Oc1ccn2ncnc2c1 [Compound 16] | 8.24 |
| Cc1cc(Nc2ncnc3cnc4c(c23)OC[C@H]2CN(C)CCN42)ccc1Oc1cc2ncn(C)c2cn1 [Compound 128] | 7.45 |
| Cc1cc(Nc2ncnc3cc4c(nc23)N2CCCC[C@H]2CO4)ccc1Oc1ccn2ncnc2c1 [Compound 68] | 7.26 |
| Cc1cc(Nc2ncnc3ccc4c(c23)OC[C@H]2CN4CCN2C(=O)/C=C/[C@H](C)N(C)C)c(F)cc1Oc1ccn2ncnc2c1 [Compound 91, triformate] | 6.83 |
| Cc1cc(Nc2ncnc3ccc4c(c23)O[C@H]2CCN(C)C[C@H]2N4)ccc1Oc1ccc2c(c1)ncn2C [Compound 125] | 7.24 |
| CN(C)C/C=C/C(=O)N1CCN2c3ncc4ncnc(Nc5cc(F)c(Oc6ccn7ncnc7c6)cc5F)c4c3OC[C@H]2C1 [Compound 115] | 7.52 |
| Cc1cc(Nc2ncnc3ccc4c(c23)OC[C@H]2CN4CCN2C(=O)/C=C/[C@@H](C)N(C)C)ccc1Oc1ccn2ncnc2c1 [Compound 88, formic acid] | 7.35 |
| COCCN1CCN2c3ccc4ncnc(Nc5ccc(Oc6ccn7ncnc7c6)c(C)c5)c4c3OC[C@H]2C1 [Compound 111] | 7.34 |
| Cc1cc(Nc2ncnc3cc4c(c(F)c23)N2CCN(C)C[C@H]2CO4)ccc1Oc1ccn2ncnc2c1 [Compound 66] | 6.92 |
| COC(=O)N1CCN2c3ccc4ncnc(Nc5ccc(Oc6ccn7ncnc7c6)c(C)c5)c4c3OC[C@H]2C1 [Compound 110] | 7.13 |
| Cc1c(Oc2ccn3ncnc3c2)ccc(Nc2ncnc3ccc4c(c23)OC[C@@H]2CN(C(=O)/C=C/CN(C)C)CCN42)c1F [Compound 93] | 7.74 |
| Cc1cc(Nc2ncnc3cc4c(nc23)N2CC[C@H]2CO4)ccc1Oc1ccn2ncnc2c1 [Compound 70] | 6.73 |
| Cc1cc(Nc2ncnc3cc4c(nc23)N2CCOC[C@H]2CO4)ccc1Oc1ccn2ncnc2c1 [Compound 67] | 7.33 |
| Cc1ccc(Oc2ccc(Nc3ncnc4ccc5c(c34)OC[C@H]3CN5CCN3C(=O)/C=C/CN(C)C)cc2C)cn1 [Compound 84] | 7.84 |
| Cc1cc(Nc2ncnc3ccc4c(c23)OC[C@@H]2CN4CCN2C)ccc1Oc1ccc2c(c1)ncn2C [Compound 54] | 7.09 |
